Target: b-Raf (V600E) (Homo sapiens (Human), UniProt P15056, V600E)
Sequence (P15056 whole entry V600E): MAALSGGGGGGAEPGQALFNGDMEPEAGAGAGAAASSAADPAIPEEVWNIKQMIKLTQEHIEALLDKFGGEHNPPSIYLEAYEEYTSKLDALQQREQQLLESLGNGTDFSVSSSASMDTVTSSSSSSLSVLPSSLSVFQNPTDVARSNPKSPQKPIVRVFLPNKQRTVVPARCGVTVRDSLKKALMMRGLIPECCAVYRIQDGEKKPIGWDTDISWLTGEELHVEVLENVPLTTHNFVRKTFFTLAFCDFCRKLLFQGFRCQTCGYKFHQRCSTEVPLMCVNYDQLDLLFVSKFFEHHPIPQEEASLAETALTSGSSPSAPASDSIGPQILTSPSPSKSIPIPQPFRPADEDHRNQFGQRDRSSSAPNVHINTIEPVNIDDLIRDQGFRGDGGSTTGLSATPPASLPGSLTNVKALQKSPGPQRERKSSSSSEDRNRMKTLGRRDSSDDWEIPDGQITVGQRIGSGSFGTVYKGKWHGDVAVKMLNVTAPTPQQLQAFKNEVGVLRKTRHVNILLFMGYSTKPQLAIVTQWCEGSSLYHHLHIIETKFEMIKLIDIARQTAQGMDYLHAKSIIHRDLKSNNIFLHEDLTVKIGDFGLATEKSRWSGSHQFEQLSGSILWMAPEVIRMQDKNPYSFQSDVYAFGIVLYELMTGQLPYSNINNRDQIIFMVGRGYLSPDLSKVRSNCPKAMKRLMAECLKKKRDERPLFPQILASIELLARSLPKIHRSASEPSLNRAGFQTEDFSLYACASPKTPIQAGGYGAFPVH
Details: read-out: b-Raf IC-50; AlphaScreen, 60 min pre-incubation, reaction 3 hours at room temperature
Give measured IC50 for each item. Keep answers brief.
Reply with the number, then its unit.

The measured IC50 associated with Cc1ncc(NC(=O)c2cc(C(C)(C)C#N)ccn2)cc1-c1cnc(OC(F)F)c(N2CCOCC2)c1 [Example 981] reads 7.65 nM

Form: molecule = Cc1ccc(NC(=O)c2cccc(S(C)(=O)=O)c2)cc1-c1cc(N2CCOCC2)nc(N2CC(C)(O)C2)c1 [Example 1074] ; IC50 = 1.86 nM

Entry under test: Cc1ccc(NC(=O)c2cccc(S(C)(=O)=O)c2)cc1-c1cc(N2CCOCC2)nc(N2CC(O)C2)c1 [Example 1096] . Its IC50 was 2 nM

Looking up Cc1ccc(NC(=O)c2cnnc(C(F)(F)F)c2)cc1-c1cc(N2CCOCC2)nc(N2CC(C)(O)C2)c1 [Example 1073] , I see its IC50 listed as 2.99 nM

Kindly note the recorded IC50 for Cc1ncc(NC(=O)c2ccnc(C(C)C)c2)cc1-c1cc(N2CCOCC2)nc(N2CCOCC2)c1 [Example 1119] , which is 2 nM

IC50 in this record for Cc1ncc(NC(=O)c2cccc(C(O)C(F)(F)F)c2)cc1-c1cnc(OC2CCOCC2)c(N2CCOCC2)c1 (stereo not drawn) [Example 977] : 4.21 nM

Kindly note the recorded IC50 for Cc1ccc(NC(=O)c2ccnc(C(C)(C)C#N)c2)cc1-c1nc2c(c(N3CCOCC3)n1)CNC2 [Example 866] , which is 7.6 nM

Recorded result, Cc1ccc(NC(=O)[C@@H]2CCN[C@H](C(F)(F)F)C2)cc1-c1cc(C2COCCO2)nc(N2CCOCC2)c1 (stereo in doubt) [Example 1132] , IC50: 270 nM

IC50 in this record for Cc1ccc(NC(=O)c2ccnc(C(C)(C)F)c2)cc1-c1cnc(OC(C)C)c(N2CCOCC2)c1 [Example 946] : 2.36 nM

Form field IC50, entry Cc1ccc(NC(=O)c2ccnc(C(C)(F)F)c2)cc1-c1cc(NCCO)nc(N2CCOCC2)c1 [Example 1037] : 1.07 nM

GET /value?item= CCOc1ncc(-c2cc(NC(=O)c3cccc(S(C)(=N)=O)c3)ccc2C)cc1N1CCOCC1 (stereo not drawn) [Example 975] &field=IC50 returns 1.81 nM

# IC50 of Cc1ccc(NC(=O)c2cnnc(C3(C#N)CC3)c2)cc1-c1cc(N2CCOCC2)n(C)c(=O)c1 [Example 899] = 1.87 nM

Form field IC50, entry Cc1ncc(NC(=O)c2cnnc(C3CC3)c2)cc1-c1cc(NCCO)nc(N2CCOCC2)c1 [Example 1052] : 8.24 nM

Notebook: Cc1ccc(NC(=O)c2ccnc(C(C)(C)O)c2)cc1-c1cc(NCCO)nc(N2CCOCC2)c1F [Example 1010] , IC50 read as 28.9 nM

Reported IC50 for Cc1ccc(NC(=O)c2cccc(C(F)F)c2)cc1-c1cc(NCCO)nc(N2CCOCC2)c1 [Example 1036] was 0.54 nM

The molecule Cc1ccc(NC(=O)c2cc(C(F)(F)F)ccn2)cc1-c1cc(N2CCOCC2)c(S(C)(=O)=O)nn1 [Example 933] showed IC50 equal to 0.78 nM

Summary for this molecule, Cc1ccc(NC(=O)c2ccnc(C(C)(F)F)c2)cc1-c1cc(OCCO)nc(N2CCOCC2)c1 [Example 1159] : IC50 is 0.75 nM

Please fill in: IC50 reported for Cc1ncc(NC(=O)c2cccc(C(F)(F)F)c2)cc1-c1cnc(OC2CCS(=O)(=O)CC2)c(N2CCOCC2)c1 [Example 1034] = 1.59 nM

Measured IC50, Cc1ncc(NC(=O)c2cccc(C(F)(F)F)c2)cc1-c1cc(N2CCOCC2)c(S(C)(=O)=O)nn1 [Example 919] : 4.11 nM

Input Cc1ncc(NC(=O)c2cccc(C(F)(F)F)c2)cc1-c1cnc(O[C@@H](C)CO)c(N2CCOCC2)c1 [Example 985] . Output IC50: 2.01 nM

The reported value for Cc1ncc(NC(=O)c2ccnc(C(C)(F)F)c2)cc1-c1cc(C2COCCO2)nc(N2CCOCC2)c1 (stereo not drawn) [Example 1166] in terms of IC50 is 3.28 nM

Quick note, IC50 for Cc1ncc(NC(=O)c2ccnc(C(F)F)c2)cc1-c1cc(N2CCOCC2)c(OC(C)C)nn1 [Example 913] landed at 2.16 nM

// field: IC50; key: Cc1ccc(NC(=O)c2ccnc(C(C)(C)C#N)c2)cc1-c1cc(N2CCOCC2)c(S(C)(=O)=O)nn1 [Example 931] ; value = 2.7 nM

Input Cc1ncc(NC(=O)c2ccnc(C3(C#N)CC3)c2)cc1-c1cc(N2CCOCC2)nc(N2CC(C)(O)C2)c1 [Example 1109] . Output IC50: 8.02 nM

# IC50 of Cc1ncc(NC(=O)c2ccnc(C(C)(C)O)c2)cc1-c1cc(NCCO)nc(N2CCOCC2)c1 [Example 1046] = 68.4 nM

Briefly, IC50 measured for Cc1ncc(NC(=O)c2ccnc(C(C)(F)F)c2)cc1-c1cnc(OC(F)F)c(N2CCOCC2)c1 [Example 980] : 1.99 nM

Measured IC50, Cc1ncc(NC(=O)c2ccc(C(O)CO)c(C(F)(F)F)c2)cc1-c1cc(N2CCOCC2)c2nccn2n1 (stereo not drawn) [Example 873] : 2.8 nM

Entry Cc1ccc(NC(=O)c2ccnc(C(F)F)c2)cc1-c1cc(N2CCOCC2)c2nccn2c1 [Example 850] — recorded IC50 = 0.6 nM

Looking up CCC(F)(F)c1cc(C(=O)Nc2cnc(C)c(-c3cc(C4COCCO4)nc(N4CCOCC4)c3)c2)ccn1 (stereo not drawn) [Example 1168] , I found its IC50 recorded as 4.56 nM

Briefly, IC50 measured for Cc1ccc(NC(=O)c2cnnc(C3(C#N)CC3)c2)cc1-c1cc(N2CCOCC2)c(=O)n(C)c1 [Example 902] : 3.37 nM

----------
Target: b-Raf (V600E) (Homo sapiens (Human), UniProt P15056, V600E)
Details: read-out: b-Raf IC-50; AlphaScreen, 60 min pre-incubation, 3 hours reaction
Hi there, I'd appreciate the recorded log10 IC50 for every entry that follows.
For clarity, the numbers are log10 values of IC50 expressed in nM.

response.value for CCn1cc(C(=O)Nc2ccc(C)c(-c3cc(N4CCOCC4)n(C)c(=O)c3)c2)cc(C(F)(F)F)c1=O (field: log10 IC50) = 0.08

Please fill in: log10 IC50 reported for Cc1ncc(NC(=O)c2ccnc(S(C)(=O)=O)c2)cc1-c1cc(N2CCOCC2)c(OC2CCOCC2)nn1 = 0.88

Lab note: Cc1ccc(NC(=O)c2cccc(C(F)(F)F)c2)cc1-c1nc(N2CCOCC2)c2[nH]ccc2n1 gave log10 IC50 of -0.22

The reported value for Cc1ccc(NC(=O)c2cccc(-c3nnco3)c2)cc1-c1cc(N2CCOCC2)c(=O)n(C)n1 in terms of log10 IC50 is 0.86

Cc1ncc(NC(=O)c2cccc(S(C)(=O)=O)c2)cc1-c1cc(N2CCOCC2)n(C)c(=O)c1 yielded log10 IC50 of 1.24

Looking up Cc1ccc(NC(=O)c2cnnc(C3CC3)c2)cc1-c1cc(N2CCOCC2)n(C)c(=O)c1 , I found its log10 IC50 recorded as -0.05

Looking up CCN1CCN(c2cc(C(=O)Nc3ccc(C)c(-c4cc(N5CCOCC5)c(=O)n(C)n4)c3)cc(C(F)(F)F)c2)CC1 , I found its log10 IC50 recorded as 0.66

----------
Target: b-Raf (V600E) (Homo sapiens (Human), UniProt P15056, V600E)
Conditions: read-out: b-Raf IC-50; AlphaScreen, 60 min pre-incubation, 3 hours reaction
Assignment: determine reported IC50 for the given compounds.
# unit: nM | format: bare number

The compound listed as CCNc1nc(-c2cc(NC(=O)c3ccnc(C(F)(F)CC)c3)ccc2C)cc(N2CCOCC2)n1 has a reported IC50 of 0.8

# IC50 of Cc1ncc(NC(=O)c2cccc(C(F)(F)F)c2)cc1-c1ccc(C#N)c(N2CCOCC2)c1 = 2.9

Form field IC50, entry Cc1ccc(NC(=O)c2ccnc(C(C)(C)C#N)c2)cc1-c1cc(N2CCOCC2)nc(N[C@@H](C)CO)n1 : 4.6

// IC50 lookup, compound = Cc1ccc(NC(=O)c2cc(F)cc(N3CCOCC3)c2)cc1-c1cc(N2CCOCC2)n(C)c(=O)c1 , result: 2.1

The reported value for Cc1ccc(NC(=O)c2cnnc(C(C)(C)C#N)c2)cc1-c1cc(N2CCOCC2)nc(NCCO)n1 in terms of IC50 is 17.9

The compound listed as Cc1ncc(NC(=O)c2ccccc2)cc1-c1cc(N2CCOCC2)n(C)c(=O)c1 shows IC50 equal to 200

Data point: CNCCN(C)c1cc(C(=O)Nc2ccc(C)c(-c3cc(N4CCOCC4)c(=O)n(C)c3)c2)ccn1 ; IC50 = 30.5

Consider Cc1ncc(NC(=O)c2cccc(C(F)(F)F)c2)cc1-c1cc(N2CCOCC2)nc(NC[C@H](C)O)n1 . Its measured IC50 is 2.1

The value of IC50 measured for the compound CCOc1nnc(-c2cc(NC(=O)c3cnnc(C(F)(F)F)c3)ccc2C)cc1N1CCOCC1 turned out to be 0.8

# IC50 of Cc1ncc(NC(=O)c2ccnc(C(F)F)c2)cc1-c1cc(N2CCOCC2)n2nccc2n1 = 1.9

For this compound ( Cc1ccc(NC(=O)c2cc(C(F)(F)F)ccn2)cc1-c1cc(N2CCOCC2)c(OC2CCOCC2)nn1 ), measured IC50 is 0.5

The recorded IC50 for Cc1ccc(NC(=O)c2cccc(C(F)(F)F)c2)cc1-c1nc2c(c(N3CCOCC3)n1)CNCC2 is 2.1

IC50 in this record for Cc1ccc(NC(=O)c2cccc(S(C)(=O)=O)c2)cc1-c1cc(N2CCOCC2)n(C)c(=O)c1 : 1.9

Value of IC50 reported for the compound Cc1ccc(NC(=O)c2cccc(C(C)(C)S(C)(=O)=O)c2)cc1-c1cc(N2CCOCC2)n(C)c(=O)c1 is 16.8

// field: IC50; key: Cc1ncc(NC(=O)c2ccnc(C(C)(C)C#N)c2)cc1-c1cc(N2CCOCC2)nc(NC[C@@H](C)O)n1 ; value = 38.6

Values from patent US9694016B2
